The entries below are paired with their reported inhibition at 20 µM.
# measured on: CAT1 (cationic amino acid transporter 1, CAT1/SLC7A1) (Homo sapiens)
# Construct: full-length human transporter stably transfected in HEK cells (HEK-CAT1); net uptake against HEK-VC vector control cells
# Sequence (P30825 whole entry): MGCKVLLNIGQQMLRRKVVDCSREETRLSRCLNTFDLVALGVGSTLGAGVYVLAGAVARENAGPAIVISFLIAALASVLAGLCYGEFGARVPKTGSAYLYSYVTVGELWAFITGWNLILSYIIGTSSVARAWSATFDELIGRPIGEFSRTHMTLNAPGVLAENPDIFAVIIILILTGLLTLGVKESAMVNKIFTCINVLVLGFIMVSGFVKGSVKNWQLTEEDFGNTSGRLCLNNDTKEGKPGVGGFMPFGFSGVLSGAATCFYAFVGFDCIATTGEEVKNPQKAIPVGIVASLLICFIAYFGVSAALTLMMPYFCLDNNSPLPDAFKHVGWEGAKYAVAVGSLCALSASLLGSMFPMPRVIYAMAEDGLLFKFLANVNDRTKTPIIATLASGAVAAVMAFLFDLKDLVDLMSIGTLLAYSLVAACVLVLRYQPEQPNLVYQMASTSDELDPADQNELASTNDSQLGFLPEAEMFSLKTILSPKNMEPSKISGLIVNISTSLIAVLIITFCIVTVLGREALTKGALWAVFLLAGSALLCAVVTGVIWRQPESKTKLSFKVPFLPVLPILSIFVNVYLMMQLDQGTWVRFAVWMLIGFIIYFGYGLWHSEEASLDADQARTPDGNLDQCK
# assay details: cell-based
# Parameters: species or system HEK-CAT1 (HEK293 stably transfected); Inhibition of net CAT1-mediated [3H]-ADMA (1 uM) uptake, 2.5 min, scintillation counting, vector control subtracted
# condition: HEK293; ADMA 1 uM as substrate; read-out: % Inhibition of ADMA uptake at 20 µM
Give a bare numeral; the unit % is implied.

Field: example entries. Status: answers known.
- compound: "COc1ccc(Cl)cc1C(=O)NCCc1ccc(S(=O)(=O)NC(=O)NC2CCCCC2)cc1 [Glibenclamide]"
  measured on: "CAT1 (cationic amino acid transporter 1, CAT1/SLC7A1) (Homo sapiens)"
  unit tag: "%"
  inhibition at 20 µM: 16.8
- compound: "CCOC(=O)C1=C(C)NC(C)=C(C(=O)OC)C1c1cccc(Cl)c1Cl (stereo not drawn)"
  measured on: "CAT1 (cationic amino acid transporter 1, CAT1/SLC7A1) (Homo sapiens)"
  unit tag: "%"
  inhibition at 20 µM: -7.4
- compound: "CN(Cc1cnc2nc(N)nc(N)c2n1)c1ccc(C(=O)N[C@@H](CCC(=O)O)C(=O)O)cc1 [Methotrexate]"
  measured on: "CAT1 (cationic amino acid transporter 1, CAT1/SLC7A1) (Homo sapiens)"
  unit tag: "%"
  inhibition at 20 µM: 5.4
- compound: "COC(=O)[C@H]1[C@H]2C[C@@H]3c4[nH]c5cc(OC)ccc5c4CCN3C[C@H]2C[C@@H](OC(=O)c2cc(OC)c(OC)c(OC)c2)[C@@H]1OC"
  measured on: "CAT1 (cationic amino acid transporter 1, CAT1/SLC7A1) (Homo sapiens)"
  unit tag: "%"
  inhibition at 20 µM: 9
- compound: "CC[C@H]1OC(=O)[C@H](C)[C@@H](O[C@H]2C[C@@](C)(OC)[C@@H](O)[C@H](C)O2)[C@H](C)[C@@H](O[C@@H]2O[C@H](C)C[C@H](N(C)C)[C@H]2O)[C@](C)(OC)C[C@@H](C)C(=O)[C@H](C)[C@@H](O)[C@]1(C)O"
  measured on: "CAT1 (cationic amino acid transporter 1, CAT1/SLC7A1) (Homo sapiens)"
  unit tag: "%"
  inhibition at 20 µM: -3.9
- compound: "CCc1oc2ccccc2c1C(=O)c1cc(Br)c(O)c(Br)c1"
  measured on: "CAT1 (cationic amino acid transporter 1, CAT1/SLC7A1) (Homo sapiens)"
  unit tag: "%"
  inhibition at 20 µM: -6.9
- compound: "C[C@H]1O[C@@H](O[C@H]2[C@@H](O)C[C@H](O[C@H]3[C@@H](O)C[C@H](O[C@H]4CC[C@@]5(C)[C@H](CC[C@@H]6[C@@H]5C[C@@H](O)[C@]5(C)[C@@H](C7=CC(=O)OC7)CC[C@]65O)C4)O[C@@H]3C)O[C@@H]2C)C[C@H](O)[C@@H]1O"
  measured on: "CAT1 (cationic amino acid transporter 1, CAT1/SLC7A1) (Homo sapiens)"
  unit tag: "%"
  inhibition at 20 µM: -7.4
- compound: "CNCCCN1c2ccccc2CCc2ccccc21"
  measured on: "CAT1 (cationic amino acid transporter 1, CAT1/SLC7A1) (Homo sapiens)"
  unit tag: "%"
  inhibition at 20 µM: -0.7
- compound: "CCCC(CCC)C(=O)O"
  measured on: "CAT1 (cationic amino acid transporter 1, CAT1/SLC7A1) (Homo sapiens)"
  unit tag: "%"
  inhibition at 20 µM: -7.6
- compound: "CN(C)CCCN1c2ccccc2CCc2ccccc21"
  measured on: "CAT1 (cationic amino acid transporter 1, CAT1/SLC7A1) (Homo sapiens)"
  unit tag: "%"
  inhibition at 20 µM: -4.3

Note inhibition at 20 µM for the compound shown: CCC(C)(C)C(=O)O[C@H]1C[C@@H](C)C=C2C=C[C@H](C)[C@H](CC[C@@H]3C[C@@H](O)CC(=O)O3)[C@H]21
-18.1

Note inhibition at 20 µM for the compound shown: CC(CN(C)C)CN1c2ccccc2CCc2ccccc21 (stereo not drawn)
-26.1

Note inhibition at 20 µM for the compound shown: CCOC(=O)[C@H](CCc1ccccc1)N[C@@H](C)C(=O)N1[C@H](C(=O)O)C[C@@H]2CCC[C@@H]21
0.1

Note inhibition at 20 µM for the compound shown: Clc1ccccc1CN1CCc2sccc2C1
-11.3

Note inhibition at 20 µM for the compound shown: CN(C)CCCN1c2ccccc2CCc2ccc(Cl)cc21
18
